test system: Escherichia coli TOP10; experiment: shrunken log2 fold change of peptide-encoding DNA abundance (4.5 h post-induction vs induction); higher = less antimicrobial activity (less host growth inhibition); settings: time post-induction: 4.5 h; library: site-saturation at positions 5, 18, 19, 20;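 also: peptides expressed intracellularly from a pBAD plasmid library in pooled LB shake-flask culture, induced with 0.3% L-arabinose, DNA abundance read by NGS, three biological replicates, DESeq2 with apeglm shrinkage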
readout: shrunken log2 fold change

1. RRIRCRPPRLPRPRPRPAKAPRP :: 0.162
2. RRIRYRPPRLPRPRPRPIYVPRP :: -1.88
3. RRIRCRPPRLPRPRPRPEVPPRP :: -0.119
4. RRIRLRPPRLPRPRPRPMNFPRP :: -0.102
5. RRIRQRPPRLPRPRPRPGYYPRP :: -0.476
6. RRIRERPPRLPRPRPRPMFGPRP :: 0.0215
7. RRIRFRPPRLPRPRPRPSSRPRP :: -0.273
8. RRIRKRPPRLPRPRPRPKVSPRP :: -0.0412
9. RRIRSRPPRLPRPRPRPTINPRP :: -0.229
10. RRIRHRPPRLPRPRPRPVSLPRP :: -0.0931
11. RRIRKRPPRLPRPRPRPIAIPRP :: -0.282
12. RRIRNRPPRLPRPRPRPSIEPRP :: -0.214
13. RRIRPRPPRLPRPRPRPDDTPRP :: -0.085
14. RRIRNRPPRLPRPRPRPAFPPRP :: -0.138
15. RRIRHRPPRLPRPRPRPINTPRP :: -0.249
16. RRIRFRPPRLPRPRPRPLFWPRP :: 0.201
17. RRIRHRPPRLPRPRPRPTCLPRP :: -0.0796
18. RRIRHRPPRLPRPRPRPEYDPRP :: -0.0789
19. RRIRYRPPRLPRPRPRPYTAPRP :: 0.00143
20. RRIRGRPPRLPRPRPRPDFGPRP :: 0.0741
21. RRIRVRPPRLPRPRPRPGKLPRP :: 0.126
22. RRIRFRPPRLPRPRPRPVIWPRP :: -0.0895
23. RRIRMRPPRLPRPRPRPNYLPRP :: -0.212
24. RRIRQRPPRLPRPRPRPEHNPRP :: -0.137
25. RRIRDRPPRLPRPRPRPITVPRP :: -0.0979
26. RRIRTRPPRLPRPRPRPQAKPRP :: -0.147
27. RRIRERPPRLPRPRPRPLASPRP :: 0.16
28. RRIRDRPPRLPRPRPRPYHIPRP :: -0.107
29. RRIRDRPPRLPRPRPRPMCSPRP :: 0.261
30. RRIRNRPPRLPRPRPRPYYFPRP :: -0.695
31. RRIRVRPPRLPRPRPRPMKGPRP :: -0.01
32. RRIRSRPPRLPRPRPRPGSKPRP :: -0.0053
33. RRIRFRPPRLPRPRPRPQHCPRP :: -0.461
34. RRIRFRPPRLPRPRPRPCKGPRP :: 0.000407
35. RRIRPRPPRLPRPRPRPCVGPRP :: 0.267
36. RRIRWRPPRLPRPRPRPFYSPRP :: -0.681
37. RRIRDRPPRLPRPRPRPCVPPRP :: -0.135
38. RRIRTRPPRLPRPRPRPGEMPRP :: 0.136
39. RRIRIRPPRLPRPRPRPFIMPRP :: -0.187
40. RRIRMRPPRLPRPRPRPLMLPRP :: -0.0158
41. RRIRFRPPRLPRPRPRPAIHPRP :: -0.478

Values were extracted from the supplement of paper PMC9112550.
